Quick list: IC50 per entry.
- measurement_target: human SGLT2 (Homo sapiens, UniProt P31639)
- Construct: A full-length cDNA clone expressing human SGLT2 (GenScript Corporation) was subcloned
- Sequence (P31639 whole entry): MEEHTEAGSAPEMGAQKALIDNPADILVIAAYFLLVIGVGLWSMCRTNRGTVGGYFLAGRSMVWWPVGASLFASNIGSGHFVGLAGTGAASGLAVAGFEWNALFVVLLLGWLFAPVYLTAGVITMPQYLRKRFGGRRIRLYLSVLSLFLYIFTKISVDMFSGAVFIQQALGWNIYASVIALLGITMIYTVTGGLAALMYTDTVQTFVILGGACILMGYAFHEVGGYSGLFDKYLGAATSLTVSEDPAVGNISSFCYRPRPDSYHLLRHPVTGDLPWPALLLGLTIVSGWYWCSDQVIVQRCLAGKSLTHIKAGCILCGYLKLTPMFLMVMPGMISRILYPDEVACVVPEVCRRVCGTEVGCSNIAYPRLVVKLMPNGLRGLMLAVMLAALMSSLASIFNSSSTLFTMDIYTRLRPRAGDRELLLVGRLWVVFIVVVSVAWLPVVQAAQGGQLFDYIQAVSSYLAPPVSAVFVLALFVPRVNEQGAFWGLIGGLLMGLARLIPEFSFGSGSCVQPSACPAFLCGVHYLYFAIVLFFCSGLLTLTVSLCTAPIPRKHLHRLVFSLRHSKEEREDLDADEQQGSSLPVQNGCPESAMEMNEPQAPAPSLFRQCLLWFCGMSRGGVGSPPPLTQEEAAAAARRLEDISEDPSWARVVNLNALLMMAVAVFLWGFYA
- assay_explanation: Methyl-α-D-[U-14C]glucopyranoside uptake assay, cells stably expressing human SGLT2
- Type: cell-based
- condition_label: HEK293.ETN cells expressing human SGLT2, 1.5 h incubation, with 25% human serum (symbols in parentheses)

chem_smiles: CCc1ccc(Cc2cc([C@@H]3O[C@H](CO)[C@@H](O)[C@H](O)[C@H]3O)c(OCCOC3CCCC3)cc2Cl)cc1
IC50: < 1 µM
//
chem_smiles: CC#CCOCCOc1cc(Cl)c(Cc2ccc(CC)cc2)cc1[C@@H]1O[C@H](CO)[C@@H](O)[C@H](O)[C@H]1O
IC50: < 1 µM
//
chem_smiles: C=CCOCc1cc(Cl)c(Cc2ccc(OCC=C)cc2)cc1[C@@H]1O[C@H](CO)[C@@H](O)[C@H](O)[C@H]1O
IC50: < 1 µM
//
chem_smiles: CCc1ccc(Cc2cc([C@@H]3O[C@H](CO)[C@@H](O)[C@H](O)[C@H]3O)c(OCCOCC(F)(F)F)cc2Cl)cc1
IC50: < 1 µM
//
chem_smiles: CC#CCOCc1cc(Cl)c(Cc2ccc(CC)cc2)cc1[C@@H]1O[C@H](CO)[C@@H](O)[C@H](O)[C@H]1O
IC50: < 1 µM
//
chem_smiles: CC#CCOCCCc1cc(Cl)c(Cc2ccc(OCC)cc2)cc1[C@@H]1O[C@H](CO)[C@@H](O)[C@H](O)[C@H]1O
IC50: < 1 µM
//
chem_smiles: CC#CCOCc1cc(Cl)c(Cc2ccc(OC)cc2)cc1[C@@H]1O[C@H](CO)[C@@H](O)[C@H](O)[C@H]1O
IC50: < 1 µM
//
chem_smiles: C#CCOCc1cc(Cl)c(Cc2ccc(OCC)cc2)cc1[C@@H]1O[C@H](COC(C)=O)[C@@H](O)[C@H](O)[C@H]1O
IC50: < 1 µM

###

Measured pIC50 values are reported for all entries that follow.
- measurement_target: human SGLT1 (Homo sapiens)
- Construct: Full-length human SGLT1 cDNA on pDream2.1 expression vector was obtained from GenScript Corporation; host or cells: COS-7 cells (American Type Culture Collection)
- Sequence (P13866 whole entry): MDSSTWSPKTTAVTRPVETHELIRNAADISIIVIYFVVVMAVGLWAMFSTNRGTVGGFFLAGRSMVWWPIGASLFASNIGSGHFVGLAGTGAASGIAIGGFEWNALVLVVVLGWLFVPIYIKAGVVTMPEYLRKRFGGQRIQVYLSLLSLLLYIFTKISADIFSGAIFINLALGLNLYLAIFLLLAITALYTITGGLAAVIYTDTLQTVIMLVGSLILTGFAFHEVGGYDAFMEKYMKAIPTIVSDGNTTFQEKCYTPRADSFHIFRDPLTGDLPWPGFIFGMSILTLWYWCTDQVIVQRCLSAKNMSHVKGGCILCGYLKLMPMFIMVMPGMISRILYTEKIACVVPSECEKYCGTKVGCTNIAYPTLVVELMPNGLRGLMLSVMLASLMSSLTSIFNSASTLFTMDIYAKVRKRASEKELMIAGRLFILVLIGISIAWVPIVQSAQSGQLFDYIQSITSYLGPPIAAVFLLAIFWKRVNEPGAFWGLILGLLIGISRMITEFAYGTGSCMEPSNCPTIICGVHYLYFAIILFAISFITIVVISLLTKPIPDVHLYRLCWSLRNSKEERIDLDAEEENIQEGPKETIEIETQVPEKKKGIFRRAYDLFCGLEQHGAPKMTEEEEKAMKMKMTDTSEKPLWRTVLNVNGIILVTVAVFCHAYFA
- assay_explanation: Methyl-α-D-[U-14C]glucopyranoside uptake assay, COS-7 cells expressing human SGLT1
- Type: cell-based
- condition_label: COS-7 cells expressing human SGLT1, 2 h incubation, without human serum (symbols without parentheses)
pIC50: −log10 of the molar value.
observation_type: pIC50

compound: C=CCOCc1cc(Cl)c(Cc2ccc(OCC)cc2)cc1[C@@H]1O[C@H](CO)[C@@H](O)[C@H](O)[C@H]1O [Compound AZ]
data_value: < 5.00
//
compound: CCc1ccc(Cc2cc([C@@H]3O[C@H](CO)[C@@H](O)[C@H](O)[C@H]3O)c(COCCCO)cc2Cl)cc1 [Compound AL]
data_value: < 5.00
//
compound: CCc1ccc(Cc2cc([C@@H]3O[C@H](CO)[C@@H](O)[C@H](O)[C@H]3O)c(COCC(O)CO)cc2Cl)cc1 (stereo partly shown) [Compound L]
data_value: < 5.00
//
compound: C#CCOCc1cc(Cl)c(Cc2ccc(CC)cc2)cc1[C@@H]1O[C@H](COC(C)=O)[C@@H](O)[C@H](O)[C@H]1O [Compound BD]
data_value: < 5.00
//
compound: C=CCOCCOc1cc(Cl)c(Cc2ccc(CC)cc2)cc1[C@@H]1O[C@H](CO)[C@@H](O)[C@H](O)[C@H]1O [Compound AW]
data_value: < 5.00
//
compound: CCc1ccc(Cc2cc([C@@H]3O[C@H](CO)[C@@H](O)[C@H](O)[C@H]3O)c(COCC(C)F)cc2Cl)cc1 (stereo partly shown) [Compound T]
data_value: 5.00 to 6.00
//
compound: CCc1ccc(Cc2cc([C@@H]3O[C@H](CO)[C@@H](O)[C@H](O)[C@H]3O)c(COCCO)cc2Cl)cc1 [Compound O]
data_value: 5.00 to 6.00

###

- measurement_target: human SGLT2 (Homo sapiens)
- Construct: A full-length cDNA clone expressing human SGLT2 (GenScript Corporation) was subcloned
- assay_explanation: Methyl-α-D-[U-14C]glucopyranoside uptake assay, cells stably expressing human SGLT2
- Assay type: cell-based
- condition_label: HEK293.ETN cells expressing human SGLT2, 1.5 h incubation, without human serum (symbols without parentheses)
- Protocol: A full-length cDNA clone expressing human SGLT2 (GenScript Corporation) was subcloned into […] and Not I sites of pEAK15 expression vector. Clones harboring the cDNA inserts were identified by restriction analysis. Plasmid containing human SGLT2 was linearized with Nsi I and purified by agarose gel electrophoresis. […] Puromycin-resistant clones were evaluated for SGLT2 activity in the methyl-α-D-[U-^14C]glucopyranoside uptake assay described below. […]
pIC50: −log10 of the molar value.
Measured pIC50, listed per entry for reference.

compound: CCc1ccc(Cc2cc([C@@H]3O[C@H](CO)[C@@H](O)[C@H](O)[C@H]3O)c(COCC(C)=O)cc2Cl)cc1 [Compound K]
pIC50: > 6.00
//
compound: CCc1ccc(Cc2cc([C@@H]3O[C@H](CO)[C@@H](O)[C@H](O)[C@H]3O)c(CCOCC(F)F)cc2Cl)cc1 [Compound AI]
pIC50: > 6.00
//
compound: C#CCOCc1cc(Cl)c(Cc2ccc(CC)cc2)cc1[C@@H]1O[C@H](COC(C)=O)[C@@H](O)[C@H](O)[C@H]1O [Compound BD]
pIC50: > 6.00
